# Tested on: cervical cancer cells (HeLa)
# PROTOCOL_NOTES: MTT method, inhibition of cervical cancer cells (HeLa)
# Assay type: cell-based
# STATED_CONDITIONS: Homo sapiens, absorbance at 595 nm, modified Karber formula, read-out: IC50, inhibition of growth of cervical cancer cells (HeLa)
PROPERTY_MEASURED: IC50 (µM)
Form entry: value (µM) — number only.

Entry under review: O=c1cc(-c2ccc(O)c(-c3c(O)cc(O)c4c(=O)cc(-c5ccc(O)cc5)oc34)c2)oc2cc(O)cc(O)c12 [Ame, amentoflavone] . Reported IC50? 8.04
